Each recorded value in this set is attributed to patent US9078899B2.

inhibition at 10 µM: recorded values
assay-system: CRAC channel (Homo sapiens, UniProt Q96D31)
Construct: host or cells: HEK293
Sequence (Q96D31 whole entry): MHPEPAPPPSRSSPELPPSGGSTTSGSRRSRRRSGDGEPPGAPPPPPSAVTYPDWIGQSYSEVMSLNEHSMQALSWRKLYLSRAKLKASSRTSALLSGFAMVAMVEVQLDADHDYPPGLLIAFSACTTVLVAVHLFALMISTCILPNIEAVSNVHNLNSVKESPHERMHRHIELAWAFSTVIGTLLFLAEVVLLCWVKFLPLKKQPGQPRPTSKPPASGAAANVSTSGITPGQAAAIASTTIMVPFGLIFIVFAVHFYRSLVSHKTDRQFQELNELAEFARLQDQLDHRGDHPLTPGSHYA
procedure-summary: HEK Calcium Influx Assay (FLIPR)
Format: cell-based
test-parameters: 10 μM; endogenous SOC in HEK293 cells, thapsigargin store depletion, Ca2+ signal 9.5-10 min post-administration; read-out: % inhib.[@ 10 μM] FLIPR
value-kind: inhibition at 10 µM

{"columns": ["smiles-record", "value-kind", "observed-value"],
 "data": [
  ["Cn1nc(C(=O)Nc2ccncc2F)cc1-c1ccc(OC(F)(F)F)cc1Cl", "inhibition at 10 µM", "50 to 70%"],
  ["Cc1cnccc1NC(=O)c1cc(-c2cc(Cl)ccc2C)n(C)n1", "inhibition at 10 µM", "50 to 70%"],
  ["COc1cc(F)c(NC(=O)c2cc(-c3c(F)cccc3C(F)(F)F)n(C)n2)c(F)c1", "inhibition at 10 µM", "50 to 70%"]
]}

----------
inhibition at 10 µM: recorded values
assay-system: CRAC channel (Homo sapiens, UniProt Q96D31)
Construct: host or cells: HEK293
procedure-summary: HEK Calcium Influx Assay (FLIPR)
Type: cell-based
test-parameters: 10 μM; endogenous SOC in HEK293 cells, thapsigargin store depletion, Ca2+ signal 9.5-10 min post-administration; read-out: % inhib.[@ 10 μM] FLIPR
Protocol: The effect of compounds of the invention on intracellular [Ca^2+] was tested in the HEK293 cell line (ECACC). HEK293 cells were cultured in DMEM/F12/Glutamax (Gibco) containing 10% FCS (Gibco), and maintained at 37° C., 5% CO2. […] Intracellular changes in [Ca^2+] were subsequently monitored with the FLIPR device (Molecular Devices). […] Increases in intracellular [Ca^2+] due to pre-activated SOC channels were monitored for 15 min until intracellular Ca^2+ levels had declined into a steady-state. […]

{"columns": ["smiles-record", "inhibition at 10 µM"],
 "data": [
  ["COc1ccc(OC)c(-c2cc(C(=O)Nc3ccncc3F)nn2C)c1", "> 70%"],
  ["COc1ccc(OC)c(-c2cc(C(=O)Nc3c(F)cccc3F)n[nH]2)c1", "> 70%"],
  ["Cn1nc(C(=O)Nc2c(F)cccc2F)cc1-c1cc(C(F)(F)F)ccc1C#N", "50 to 70%"],
  ["Cn1nc(C(=O)Nc2ccc(F)cc2F)cc1-c1c(F)cccc1C(F)(F)F", "50 to 70%"],
  ["COc1ccc(OC)c(-c2cc(C(=O)Nc3ccncc3C(F)(F)F)nn2C)c1", "50 to 70%"],
  ["COc1ccc(OC)c(-c2cc(C(=O)Nc3ccc(F)cc3F)nn2C)c1", "> 70%"],
  ["Cn1nc(C(=O)Nc2c(F)cccc2F)cc1-c1c(F)cccc1C(F)(F)F", "50 to 70%"],
  ["Cn1nc(C(=O)Nc2c(F)cncc2F)cc1-c1cc(OC(F)(F)F)ccc1C1CC1", "> 70%"],
  ["COc1ccc(OC)c(-c2cc(C(=O)Nc3c(F)cccc3Cl)nn2C)c1", "> 70%"]
]}

----------
assay-system: CRAC channel (Homo sapiens, UniProt Q96D31)
Construct: host or cells: HEK293
procedure-summary: HEK Calcium Influx Assay (FLIPR)
Format: cell-based
test-parameters: 10 μM; endogenous SOC in HEK293 cells, thapsigargin store depletion, Ca2+ signal 9.5-10 min post-administration; read-out: % inhib.[@ 10 μM] FLIPR
inhibition at 10 µM: recorded values
value-kind: inhibition at 10 µM

{"columns": ["compound", "value-kind", "observed-value"],
 "data": [
  ["COc1ccccc1-c1cc(C(=O)Nc2c(F)cccc2F)nn1C [Example 1]", "inhibition at 10 µM", "> 70%"],
  ["COc1ccc(OC)c(-c2cc(C(=O)Nc3ncncc3C)nn2C)c1 [Example 18]", "inhibition at 10 µM", "< 50%"],
  ["CCn1nc(C(=O)Nc2c(F)cccc2F)cc1-c1cc(OC)ccc1OC [Example 37]", "inhibition at 10 µM", "50 to 70%"],
  ["COc1ccc(OC)c(-c2c(C)c(C(=O)Nc3ccncc3F)nn2C)c1 [Example 25]", "inhibition at 10 µM", "> 70%"],
  ["Cn1nc(C(=O)Nc2ccccc2F)cc1-c1c(F)cccc1C(F)(F)F [Example 61]", "inhibition at 10 µM", "> 70%"],
  ["Cc1ccc(Cl)cc1-c1cc(C(=O)Nc2c(F)cccc2F)nn1C [Example 26]", "inhibition at 10 µM", "> 70%"],
  ["COc1ccc(OC)c(-c2cc(C(=O)Nc3ccncc3C)nn2C)c1 [Example 20]", "inhibition at 10 µM", "> 70%"],
  ["COc1ccc(OC)c(-c2cc(C(=O)Nc3c(F)cccc3F)nn2C)c1 [Example 21]", "inhibition at 10 µM", "> 70%"],
  ["Cn1nc(C(=O)Nc2ccncc2F)cc1-c1cc(OC(F)(F)F)ccc1C1CC1 [Example 47]", "inhibition at 10 µM", "> 70%"]
]}
